Data provenance: the NIST ThermoML archive (doi:10.1021/je800863c)

settings: 298.15 K; 101.33 kPa; Liquid; Vibrating tube method
Observable: mass density (kg/m3)
Answers are plain numbers, in kg/m3.

> print(dat)
                                   molecule  obs.value
1  CCCCCCCC[n+]1ccn(C)c1.COS(=O)(=O)[O-] [1-methyl-3-octylimidazolium methyl sulfate]    1114.47

Quick one: give me mass density for each item below, same order please.
1. CCOS(=O)(=O)[O-].CCn1cc[n+](C)c1 [1-ethyl-3-methylimidazolium ethyl sulfate]
2. CCCCCCn1cc[n+](C)c1.COS(=O)(=O)[O-] [1-hexyl-3-methylimidazolium methyl sulfate]
3. CCCCn1cc[n+](C)c1.CCOS(=O)(=O)[O-] [1-butyl-3-methyl-1H-imidazolium ethyl sulfate]
4. COS(=O)(=O)[O-].Cn1cc[n+](C)c1 [1,3-dimethylimidazolium methylsulfate]
5. CCCCCCCC[n+]1ccn(C)c1.CCOS(=O)(=O)[O-] [1-methyl-3-octylimidazolium ethyl sulfate]
6. CCCCCCn1cc[n+](C)c1.CCOS(=O)(=O)[O-] [1-hexyl-3-methylimidazolium ethyl sulfate]

Reply |
1. 1236.26
2. 1168.83
3. 1198.93
4. 1328.38
5. 1115.93
6. 1150.6

Ask | Look up mass density: CCCCn1cc[n+](C)c1.COS(=O)(=O)[O-] [1-butyl-3-methylimidazolium methyl sulfate]
Reply | 1212.95

---

conditions: 313.15 K; 101.33 kPa; Liquid; Falling or rolling sphere viscometry
Exercise: state measured viscosity for each of the compounds provided.
Give bare numbers, in mPa·s.

> print(dat)
                                   compound  obs.value
1  CCCCn1cc[n+](C)c1.COS(=O)(=O)[O-] [1-butyl-3-methylimidazolium methyl sulfate]      104.2
2  CCCCCCCC[n+]1ccn(C)c1.CCOS(=O)(=O)[O-] [1-methyl-3-octylimidazolium ethyl sulfate]      275.2
3  CCOS(=O)(=O)[O-].CCn1cc[n+](C)c1 [1-ethyl-3-methylimidazolium ethyl sulfate]       48.5
4  CCCCCCn1cc[n+](C)c1.COS(=O)(=O)[O-] [1-hexyl-3-methylimidazolium methyl sulfate]      164.3
5  CCCCn1cc[n+](C)c1.CCOS(=O)(=O)[O-] [1-butyl-3-methyl-1H-imidazolium ethyl sulfate]        164
6  COS(=O)(=O)[O-].Cn1cc[n+](C)c1 [1,3-dimethylimidazolium methylsulfate]       40.8

Quick one: give me viscosity for each item below, same order please.
1. CCCCCCn1cc[n+](C)c1.CCOS(=O)(=O)[O-] [1-hexyl-3-methylimidazolium ethyl sulfate]
2. CCCCCCCC[n+]1ccn(C)c1.COS(=O)(=O)[O-] [1-methyl-3-octylimidazolium methyl sulfate]

Reply |
1: 236; 2: 180.6

---

settings: 313.15 K; 101.33 kPa; Liquid; Vibrating tube method
Exercise: state measured mass density for each of the compounds provided.
One number for each entry, in kg/m3.

Before answering, review these 5 worked examples.
> print(dat)
                                   compound  unit.annotation  obs.value
1  CCCCCCn1cc[n+](C)c1.CCOS(=O)(=O)[O-] [1-hexyl-3-methylimidazolium ethyl sulfate]            kg/m3     1140.6
2  CCCCCCCC[n+]1ccn(C)c1.COS(=O)(=O)[O-] [1-methyl-3-octylimidazolium methyl sulfate]            kg/m3    1104.64
3  CCOS(=O)(=O)[O-].CCn1cc[n+](C)c1 [1-ethyl-3-methylimidazolium ethyl sulfate]            kg/m3    1226.79
4  CCCCn1cc[n+](C)c1.COS(=O)(=O)[O-] [1-butyl-3-methylimidazolium methyl sulfate]            kg/m3    1199.75
5  CCCCn1cc[n+](C)c1.CCOS(=O)(=O)[O-] [1-butyl-3-methyl-1H-imidazolium ethyl sulfate]            kg/m3    1188.69

Quick one: give me mass density for each item below, same order please.
1. COS(=O)(=O)[O-].Cn1cc[n+](C)c1 [1,3-dimethylimidazolium methylsulfate]
2. CCCCCCCC[n+]1ccn(C)c1.CCOS(=O)(=O)[O-] [1-methyl-3-octylimidazolium ethyl sulfate]

Reply |
1: 1317.85; 2: 1106.2

Ask | Look up mass density: CCCCCCn1cc[n+](C)c1.COS(=O)(=O)[O-] [1-hexyl-3-methylimidazolium methyl sulfate]
Reply | 1158.87
